Here we list compounds with their recorded IC50 when tested on Cytochrome P450 2D1 (Rattus norvegicus).
Sequence (P10633 whole entry): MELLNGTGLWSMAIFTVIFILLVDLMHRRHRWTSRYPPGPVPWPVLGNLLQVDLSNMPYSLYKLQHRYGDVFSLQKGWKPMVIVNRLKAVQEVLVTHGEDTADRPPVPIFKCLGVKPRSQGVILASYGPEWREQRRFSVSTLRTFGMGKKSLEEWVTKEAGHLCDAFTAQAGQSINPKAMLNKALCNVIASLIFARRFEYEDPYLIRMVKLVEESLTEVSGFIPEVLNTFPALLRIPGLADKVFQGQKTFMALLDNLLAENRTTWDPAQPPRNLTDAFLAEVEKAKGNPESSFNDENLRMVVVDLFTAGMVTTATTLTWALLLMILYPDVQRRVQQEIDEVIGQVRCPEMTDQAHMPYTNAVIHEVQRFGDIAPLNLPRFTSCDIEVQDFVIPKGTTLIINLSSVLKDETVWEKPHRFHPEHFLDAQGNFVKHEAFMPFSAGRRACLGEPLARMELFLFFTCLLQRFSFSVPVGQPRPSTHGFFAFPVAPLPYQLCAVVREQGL
Return type: number; implicit unit µM.

// known answers, use as guide
COc1ccc2c3c1O[C@H]1[C@@H](O)C=C[C@H]4[C@@H](C2)N(C)CC[C@@]341 = 1320
C=C[C@H]1C[N@@]2CC[C@H]1C[C@H]2[C@H](O)c1ccnc2ccc(OC)cc12 = 46.5
COc1ccc2c(c1)[C@]13CCCC[C@@H]1[C@H](C2)N(C)CC3 = 264

Record CNCCC=C1c2ccccc2CCc2ccccc21 : what is its IC50 with Cytochrome P450 2D1 (Rattus norvegicus)? 204

----------
# target_or_test_system: Cytochrome P450 2D4 (Rattus norvegicus, UniProt Q64680)
# Sequence (Q64680 whole entry): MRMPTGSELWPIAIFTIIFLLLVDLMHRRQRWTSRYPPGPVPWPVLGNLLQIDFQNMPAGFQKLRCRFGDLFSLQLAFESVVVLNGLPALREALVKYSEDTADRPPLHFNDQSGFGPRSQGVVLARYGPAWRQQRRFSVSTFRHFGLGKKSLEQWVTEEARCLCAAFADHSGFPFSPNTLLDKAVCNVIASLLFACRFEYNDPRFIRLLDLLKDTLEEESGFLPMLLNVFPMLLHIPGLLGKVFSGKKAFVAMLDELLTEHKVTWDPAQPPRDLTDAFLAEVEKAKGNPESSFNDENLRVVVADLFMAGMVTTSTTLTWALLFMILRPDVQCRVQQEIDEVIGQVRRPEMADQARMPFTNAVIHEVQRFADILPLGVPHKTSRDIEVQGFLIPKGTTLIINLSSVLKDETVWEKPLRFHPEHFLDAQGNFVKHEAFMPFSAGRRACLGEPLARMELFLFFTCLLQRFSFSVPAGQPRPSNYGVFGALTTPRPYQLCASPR
quantity_measured: pIC50
Scale for pIC50: -log10 of concentration given in mol/L; no unit attached.

CNCCC=C1c2ccccc2CCc2ccccc21 = 4.71

Consider the molecule [H]/N=C(/N)N/C(=N/[H])NCCc1ccccc1 and give its measured pIC50. 3.08

Repeat with COc1ccc2c(c1)[C@]13CCCC[C@@H]1[C@H](C2)N(C)CC3 3.87

Repeat with N=C(N)N1CCc2ccccc2C1 3.13

Repeat with COc1ccc2c3c1O[C@H]1[C@@H](O)C=C[C@H]4[C@@H](C2)N(C)CC[C@@]341 2.65

----------
Here we list compounds with their recorded pIC50 when tested on Cytochrome P450 2D26 (Rattus norvegicus, UniProt P10634).
Sequence (P10634 whole entry): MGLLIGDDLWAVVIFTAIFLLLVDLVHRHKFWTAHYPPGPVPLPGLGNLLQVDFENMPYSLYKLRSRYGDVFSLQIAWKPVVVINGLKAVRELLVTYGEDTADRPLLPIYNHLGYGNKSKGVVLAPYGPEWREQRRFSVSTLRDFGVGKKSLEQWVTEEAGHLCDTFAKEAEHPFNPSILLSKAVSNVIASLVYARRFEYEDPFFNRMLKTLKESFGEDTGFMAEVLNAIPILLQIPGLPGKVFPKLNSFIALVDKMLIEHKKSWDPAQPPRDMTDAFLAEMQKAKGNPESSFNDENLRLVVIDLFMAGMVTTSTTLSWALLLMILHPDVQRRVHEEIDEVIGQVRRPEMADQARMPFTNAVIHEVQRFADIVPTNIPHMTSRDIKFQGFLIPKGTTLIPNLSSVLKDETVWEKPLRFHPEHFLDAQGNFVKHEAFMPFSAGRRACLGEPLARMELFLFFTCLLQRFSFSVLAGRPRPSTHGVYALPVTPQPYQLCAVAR
Scale for pIC50: -log10 of concentration given in mol/L; no unit attached.

COc1ccc2c3c1O[C@H]1[C@@H](O)C=C[C@H]4[C@@H](C2)N(C)CC[C@@]341 [CODEINE] = 3.62
CNCCC=C1c2ccccc2CCc2ccccc21 [NORTRIPTYLINE] = 5.72
COc1ccc2c(c1)[C@]13CCCC[C@@H]1[C@H](C2)N(C)CC3 [DEXTROMETHORPHAN] = 5.25

Record CC(C)NC[C@H](O)COc1cccc2ccccc12 [LEVOPROPRANOLOL] : what is its pIC50 with Cytochrome P450 2D26 (Rattus norvegicus, UniProt P10634)? 6.46

----------
Here we list compounds with their recorded IC50 when tested on Cytochrome P450 2D6 (Homo sapiens, UniProt P10635).
Sequence (P10635 whole entry): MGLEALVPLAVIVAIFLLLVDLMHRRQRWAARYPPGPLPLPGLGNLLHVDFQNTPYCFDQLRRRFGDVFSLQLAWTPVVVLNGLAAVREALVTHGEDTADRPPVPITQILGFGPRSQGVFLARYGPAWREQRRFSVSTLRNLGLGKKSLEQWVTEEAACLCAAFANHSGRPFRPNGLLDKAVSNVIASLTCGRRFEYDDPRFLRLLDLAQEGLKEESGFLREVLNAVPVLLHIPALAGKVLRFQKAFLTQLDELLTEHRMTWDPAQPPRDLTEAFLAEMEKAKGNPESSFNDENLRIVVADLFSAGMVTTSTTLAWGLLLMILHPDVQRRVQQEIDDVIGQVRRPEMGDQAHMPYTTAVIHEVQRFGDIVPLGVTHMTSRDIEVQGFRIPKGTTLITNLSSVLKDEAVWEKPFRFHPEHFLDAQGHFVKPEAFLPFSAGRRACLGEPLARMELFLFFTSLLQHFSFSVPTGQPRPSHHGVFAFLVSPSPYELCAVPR
Return type: number; implicit unit µM.

// known answers, use as guide
N=C(N)N1CCc2ccccc2C1 [DEBRISOQUIN] = 23.8
CNCCC=C1c2ccccc2CCc2ccccc21 [NORTRIPTYLINE] = 2.3
COc1ccc2c(CN(C)C)cc(=O)oc2c1 = 74.2

Note: attention shifts to another entry.
Consider the compound COc1ccc2c(c1)[C@]13CCCC[C@@H]1[C@H](C2)N(C)CC3 [DEXTROMETHORPHAN] and give its measured IC50. 1.8
